Assay: yeast display, Sf9 membrane polyspecificity reagent, FACS + sequencing; frameworks hold sequencing errors
reportedEndpoint: polyreactivity (PSR sort gate)

Guide cases for polyreactivity (PSR sort gate), answers given:
QVQLVESGGGLVQAGGSLRLSCAASGRTFFRNAMGWYRQAPGKERELVAAISSSGGSTYADSVKGRFTISRDNAKNTVYLQMNSLKPEDTAVYYCAATVRGKRSTYDYWGQGTQVTVSS	high polyreactivity
QVQLVESGGGLVQAGCSLRLSCAASGFIFTTYAMGWYRQEPGKERELVAAISGRGGTTYYADSVKGRFTISLDTAKNTVYLQMNSLKPEDTAVYYCAADGYPGDDYWGQGTQVTVSS	high polyreactivity
QVQLVESGGGLVQAGGSLRLSCAASGSTIYAYAMGWYRQAPGKERELVAAIDSGGSTYYADSVKGRFTISRDNAKNTVYLQMNSLKPEDTAVYYCAVRHRYTRAYWGRDYWGQGTQVTVSS	low polyreactivity
QVQLVESGGGLVQAGGSLRLSCAASGSIIRRYAMGWYRPAPGKERELVAAISSGGSTYYADSVKGRFTISRDNAKNTVYLQMNSLKPEDTAVYYCAALYYQITTTHYLHLHYDYWGEGTQVTVSS	low polyreactivity

Read the next record carefully.
Answer with the recorded polyreactivity (PSR sort gate) for the sequence listed here: `QVQLVESGGGLVQAGGSLRLSCAASGQTFDWYAMGWYRQAPGKERELVAAITSVGSTYYADSVKGRFTISRDNAKNSVYLQMNSLKPEDTAVYYCAVEGVIWSFWPYEYWGQGTQVTVSS`
high polyreactivity

* * *

Assay: yeast display, Sf9 membrane polyspecificity reagent, FACS + sequencing; frameworks hold sequencing errors
reportedEndpoint: polyreactivity (PSR sort gate)

Guide cases for polyreactivity (PSR sort gate), answers given:
QVQLVESGGGLVQAGGSLRLSCAASGFIFYTYVMGWYRQAPGKERELVAAISGTGGRTYYADSVKGRFTISRDNAKNTVYLQMNSLKPEDTAVYYCAAVSRYATGGGYWGQGTQVTVSS	high polyreactivity
QVPLVESGGGLVQAGGSLRLSCAASGSIFAPYTMGWYRQAPGKERELVAAISVTTGITYYADTLKGRFTISRDNAKNTVYLQMNSLKPEDTGVYYCAAELYKSLWYEYWGQGTQVTVSS	low polyreactivity
QVQLVESGGGLVQAGGSLRLSCAASGSTFPWNAMGWYRQAPGKERELVAAIRTGGGRTYYADSVKGRFTISRDNAKNTVYLQMNSLKPEDTAVYYCNAYQSSGRYRNSYGYWGQGTQVTVSS	high polyreactivity
QVQLVESGGGLVQAGGRLLLSCAASGGTFYRNAMGWYRLAPGKERELVASISRTGGSTYYADSVKGRFTISRDNAKNTVYLQMNSMKPEDTAVYYCNALPYSRGRWRPLSAVDYWGQGTQVTVSS	high polyreactivity
QVQLVESGGGLVQAGGSLRLSCAASGSISTYYAMGWYRQAPGKERELVAAITRNGGSTYYADSVKGRFTISRDNSKNTVYLQMNSLKPEDTAVYYCAARNAFGTYYYWGQGTQVTVSS	high polyreactivity

Answer with the recorded polyreactivity (PSR sort gate) for the sequence listed here: `QVQLVESGGGLVQAGGSLRLSCAASGSTFYPYAMGWYRQAPGKERELVAAITSGGRTYYADSVKGRFTISRDNAKNTVYLQMNSLKPEDTAVYYCAAVYINRLTSKYEYWGQGTQVTVSS`
high polyreactivity

Answer with the recorded polyreactivity (PSR sort gate) for the sequence listed here: `QVQLVESGGGLVQAGGSLRLSCAASGSIFRYYAMGWYRQAPWKERELVADISSGGSTYYADSVKGRFTISRDNAKNTVNLQMISQKPEDTAVYYCNDDYYAYPWTNDYWGQGTQVTVTS`
high polyreactivity
